Listing: pKd of selected binders
targetSystem: T1, GPC3 (UniProt P51654 25-559, limits assumed)
T1 construct: also called antigen GPC3; Glypican 3
T1 sequence (P51654 25-559 limits assumed): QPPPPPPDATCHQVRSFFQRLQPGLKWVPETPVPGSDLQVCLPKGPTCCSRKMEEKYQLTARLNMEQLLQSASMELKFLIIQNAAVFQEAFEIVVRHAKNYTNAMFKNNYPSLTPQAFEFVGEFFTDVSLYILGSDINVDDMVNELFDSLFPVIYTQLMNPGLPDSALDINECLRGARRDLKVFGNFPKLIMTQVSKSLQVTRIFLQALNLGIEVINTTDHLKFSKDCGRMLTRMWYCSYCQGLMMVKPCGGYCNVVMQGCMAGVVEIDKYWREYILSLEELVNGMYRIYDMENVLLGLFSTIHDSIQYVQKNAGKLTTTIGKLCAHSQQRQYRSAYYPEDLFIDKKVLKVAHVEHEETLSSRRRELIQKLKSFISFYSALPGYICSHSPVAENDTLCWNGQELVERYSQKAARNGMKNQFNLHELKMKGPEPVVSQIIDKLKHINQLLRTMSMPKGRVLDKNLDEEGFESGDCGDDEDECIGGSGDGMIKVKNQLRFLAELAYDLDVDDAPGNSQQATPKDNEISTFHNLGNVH
methodSummary: SPR (Biacore T200); scFv-Fc captured by anti-human Fc pAb, GPC3 10-320 nM in flow
Remember, pKd is on a log scale: it is -log10 of the molar concentration.

Examples from the recorded data:
Challenge: State, in one line, measured pKd of VL1.M2-VH2.M1 humanized scFv (scFv, not shown: a dimerising Fc or GST, Crude scFv with Fc tag from HEK293 supernatant) scFv: DIVMTQTPLSLSVTPGQPASISCRSSQSLVHSNGNTYLHWYLQKPGQSPQLLIYKVSSRFSGVPDRFSGSGSGTDFTLKISRVEAEDVGVYYCSQNTHVPPTFGQGTKVEIKGGGGSGGGGSGGGGSQVQLVQSGAEVKKPGASVKVSCKASGYTFTSYEMHWVRQAPGQGLEWMGALDPKTGDTAYSQKFKGRVTLTADTSTSTVYMELSSLRSEDTAVYYCTRFYSYTYWGQGTLVTVSS
Response given: 8.52

Challenge: State, in one line, measured pKd of VL1.M2-VH2.M5 humanized scFv (scFv, not shown: a dimerising Fc or GST, Crude scFv with Fc tag from HEK293 supernatant) scFv: DIVMTQTPLSLSVTPGQPASISCRSSQSLVHSNGNTYLHWYLQKPGQSPQLLIYKVSSRFSGVPDRFSGSGSGTDFTLKISRVEAEDVGVYYCSQNTHVPPTFGQGTKVEIKGGGGSGGGGSGGGGSQVQLVQSGAEVKKPGASVKVSCKASGYTFTDYEMHWVRQAPGQGLEWMGALDPKTGDTAYSQKFQGRVTLTADTSTSTVYMELSSLRSEDTAVYYCTRFYSYTYWGQGTLVTVSS
Response given: 8.68

---
Challenge: State, in one line, measured pKd of VL1-VH2.M1 humanized scFv (scFv, not shown: a dimerising Fc or GST, Crude scFv with Fc tag from HEK293 supernatant) scFv: DIVMTQTPLSLSVTPGQPASISCRSSQSLVHSNGNTYLHWYLQKPGQSPQLLIYKVSNRFSGVPDRFSGSGSGTDFTLKISRVEAEDVGVYYCSQNTHVPPTFGQGTKVEIKGGGGSGGGGSGGGGSQVQLVQSGAEVKKPGASVKVSCKASGYTFTSYEMHWVRQAPGQGLEWMGALDPKTGDTAYSQKFKGRVTLTADTSTSTVYMELSSLRSEDTAVYYCTRFYSYTYWGQGTLVTVSS
Response given: 8.72
